# Test system: Danio rerio larvae Tg(actc1b:ZsGreen-LC3), 3 dpf
# Assay Details: LC3 puncta relative area vs vehicle, with NH4Cl (autophagic flux) (log2 fold change); higher = more autophagy
# Recorded Conditions: 10 µM; treatment time 16 h; NH4Cl: + 100 mM, 4 h
Structures can show the parent of a compound that is named as a salt.
Quantity Name: LC3 puncta (log2)
Answers are plain numbers.

// solved cases for LC3 puncta (log2) follow
>>> result("COC(=O)[C@@H](N)CCCNC(=N)N[N+](=O)[O-] [L-NAME hydrochloride]")
0.657
>>> result("c1ccc(CC(c2ccccc2)N2CCCCC2)cc1 (stereo not given) [(?)-1-(1,2-Diphenylethyl)piperidine maleate]")
0.216
>>> result("CN(C(=O)Cc1ccc(Cl)c(Cl)c1)[C@H](CN1CCCC1)c1ccccc1 [ICI 199,441 hydrochloride]")
0.486
>>> result("Cc1ccc(C[N+](C)(C)C)o1 [5-Methylfurmethiodide]")
0.316
>>> result("CS(=O)(=O)Nc1ccc(Cc2noc(-c3ccc4[nH]cc(CCN)c4c3)n2)cc1")
0.382
>>> result("O=C(O)Cc1cccnc1C(=O)O")
0.499
>>> result("c1ccc(CCCN2CCN(CCOC(c3ccccc3)c3ccccc3)CC2)cc1")
0.346
>>> result("Oc1ccc2c3c1O[C@H]1c4c(c5ccccc5n4Cc4ccccc4)C[C@@]4(O)C(C2)N(CC2CC2)CC[C@]314 [N-Benzylnaltrindole hydrochloride]")
0.945
>>> result("CC(CN)CC(=O)O (stereo not given)")
0.425
>>> result("O=C(CCCN1CCC2(CC1)C(=O)N(Cc1cccc(F)c1)CN2c1ccccc1)c1ccc(F)cc1 [3'-Fluorobenzylspiperone maleate]")
1.38

Look at each compound and report its LC3 puncta (log2).
1. CCCN(C/C=C/I)C1CCc2ccc(O)cc2C1 (stereo not given) [7-Hydroxy-PIPAT maleate]
2. CO[C@]12C[C@@H](COC(=O)c3cncc(Br)c3)CN(C)[C@@H]1Cc1cn(C)c3cccc2c13
3. N[C@@H](Cn1oc(=O)[nH]c1=O)C(=O)O
4. Cc1onc(O)c1CC(N)C(=O)O (racemic)
5. CCCN(CCC)C1CCc2cccc(O)c2C1 (stereo not given) [8-Hydroxy-DPAT hydrobromide]

Given back:
1: 0.264; 2: 0.397; 3: 0.686; 4: 0.2; 5: 0.325

Look at each compound and report its LC3 puncta (log2).
1. c1ccc2sc(C3(N4CCCCC4)CCCCC3)cc2c1 [BTCP maleate]
2. CC(C)C[C@H]1C(=O)N2CCC[C@H]2[C@]2(O)O[C@](NC(=O)[C@@H]3C=C4c5cccc6[nH]c(Br)c(c56)C[C@H]4N(C)C3)(C(C)C)C(=O)N12 [Bromocriptine mesylate]
3. Cc1cc(C)cc(C(=O)OC2C[C@H]3CC[C@@H](C2)N3C)c1 (stereo not given in full) [Tropanyl-3,5-dimethylbenzoate]
4. S=C=Nc1cccc(C2(N3CCCCC3)CCCCC2)c1

Given back:
1: 0.575; 2: 0.623; 3: 0.418; 4: 0.576

Look at each compound and report its LC3 puncta (log2).
1. C(=C\c1ccccc1)/CN1CCN(CCOC(c2ccccc2)c2ccccc2)CC1
2. CCCN[C@@H]1CCc2c(OC)cccc2[C@@H]1C [(+)-AJ 76 hydrochloride]
3. c1ccc(CCCCN2CCC(c3ccccc3)CC2)cc1 [4-PPBP maleate]
4. O=c1[nH]oc2c1CCNC2 [THIP hydrochloride]
5. c1ccc2c(c1)[I+]c1ccccc1-2 [Diphenyleneiodonium chloride]
6. CN1[C@@H]2CC[C@H]1C[C@@H](OC(=O)c1cc(Cl)cc(Cl)c1)C2

Given back:
1. 0.791
2. 0.353
3. 0.486
4. 0.742
5. 0.545
6. 0.686
